# reported cell viability; entries follow
System: myeloid leukemia patient primary cells Pat.2
Test: cell viability (% survival relative to DMSO control); higher = less cytotoxic
Conditions: 1 nM; 72 h

Solved cases (4 shown):
- O=C(/C=C/c1ccc(O)c(O)c1)OCCc1ccccc1: 95.4%
- C=CCN(C)CCCCCCOc1ccc(C(=O)c2ccc(Br)cc2)c(F)c1.O=C(O)/C=C/C(=O)O [Ro 48-8071 fumarate]: 98.4%
- O=c1cc(N2CCOCC2)oc2c(-c3ccccc3)cccc12: 92.1%
- CC(C)(C)c1ccc(S(=O)(=O)NCc2ccc(C(=O)Nc3cccnc3)cc2)cc1: 98.4%

Could you now consider this next compound?
Item: Cc1cc2c(C(C)C)c(O)c(O)c(C=O)c2c(O)c1-c1c(C)cc2c(C(C)C)c(O)c(O)c(C=O)c2c1O | cell viability: 96.6%

###

System: BV-173
Assay: cell viability (% survival relative to DMSO control, bortezomib = 0%); higher = less cytotoxic
Details: 10 nM; 72 h
# reported cell viability; entries follow

- C[C@H]1c2cccc(O)c2C(=O)C2C(=O)[C@]3(O)C(=O)C(C(N)=O)C(=O)[C@@H](N(C)C)[C@@H]3[C@@H](O)[C@@H]21 (stereo partly specified) [Doxycycline]: 87.9%
- CCc1oc2ccccc2c1C(=O)c1cc(Br)c(O)c(Br)c1 [Benzbromarone]: 94.1%
- CC/C=C\C[C@H]1C(=O)CC[C@@H]1CC(=O)OC [Methyl jasmonate]: 111%
- CN(Cc1cnc2nc(N)nc(N)c2n1)c1ccc(C(=O)N[C@@H](CCC(=O)O)C(=O)O)cc1 [Methotrexate]: 98.3%

Item: Cc1cccc(Nc2cc(Cl)nc(SCC(=O)O)n2)c1C [Pirinixic acid] | cell viability: 90.6%

Item: O=C([O-])CC(O)(C(=O)[O-])C(O)C(=O)[O-].[K+].[K+].[K+] (stereo unspecified) [Hydroxycitrate] | cell viability: 95.7%

###

System: myeloid leukemia patient primary cells Pat.3
Assay: area under dose-response curve (viability, 1 nM-10 uM) (fraction (0-1)); higher = more sensitive
Details: 72 h
property name: area under dose-response curve
In your answer, state the number alone without any accompanying words.

* Cc1cc2c(C(C)C)c(O)c(O)c(C=O)c2c(O)c1-c1c(C)cc2c(C(C)C)c(O)c(O)c(C=O)c2c1O [Gossypol] | 0.428
* C=CCN(C)CCCCCCOc1ccc(C(=O)c2ccc(Br)cc2)c(F)c1.O=C(O)/C=C/C(=O)O [Ro 48-8071 fumarate] | 0.576

Item: O=C(/C=C/c1ccc(O)c(O)c1)OCCc1ccccc1 [Caffeic acid phenethyl ester] | area under dose-response curve: 0.467

Item: Cn1cc(-c2ccncc2)c(-c2ccc(OCc3ccc4ccccc4n3)cc2)n1 | area under dose-response curve: 0.219

###

System: THP-1
Experiment: cell viability (% survival relative to DMSO control, bortezomib = 0%); higher = less cytotoxic
Conditions: 10000 nM; 72 h
property name: cell viability (%)
A number alone suffices; assume %.

Item: N[C@@H](CC(=O)N1CCn2c(nnc2C(F)(F)F)C1)Cc1cc(F)c(F)cc1F | cell viability: 97.6

Item: CCOC(=O)c1sc(NC(=O)c2ccco2)c(SC#N)c1C | cell viability: 100

Item: Cc1[nH]nc(C(F)(F)F)c1Cc1sc2c(c1C(=O)N1C[C@](C)(O)CO1)c(=O)n(C)c(=O)n2C(C)C | cell viability: 102

Item: O=C(NCCN1CCC(n2c(O)nc3ccccc32)CC1)c1cc2cc(F)ccc2[nH]1 | cell viability: 96.3

Item: C=CC(=O)c1ccc(O)cc1 | cell viability: 72.8

Item: CN1CCN(CCCN2c3ccccc3Sc3ccc(C(F)(F)F)cc32)CC1 | cell viability: 72.4

Item: O=c1c(-c2ccc(O)cc2)coc2cc(O[C@@H]3O[C@H](CO)[C@@H](O)[C@H](O)[C@H]3O)ccc12 | cell viability: 95.4
